- Measurement Target: Corticotropin-releasing factor receptor 2/Corticotropin-releasing factor-binding protein (Homo sapiens, UniProt P24387+Q13324)
- Sequence (Q13324 whole entry): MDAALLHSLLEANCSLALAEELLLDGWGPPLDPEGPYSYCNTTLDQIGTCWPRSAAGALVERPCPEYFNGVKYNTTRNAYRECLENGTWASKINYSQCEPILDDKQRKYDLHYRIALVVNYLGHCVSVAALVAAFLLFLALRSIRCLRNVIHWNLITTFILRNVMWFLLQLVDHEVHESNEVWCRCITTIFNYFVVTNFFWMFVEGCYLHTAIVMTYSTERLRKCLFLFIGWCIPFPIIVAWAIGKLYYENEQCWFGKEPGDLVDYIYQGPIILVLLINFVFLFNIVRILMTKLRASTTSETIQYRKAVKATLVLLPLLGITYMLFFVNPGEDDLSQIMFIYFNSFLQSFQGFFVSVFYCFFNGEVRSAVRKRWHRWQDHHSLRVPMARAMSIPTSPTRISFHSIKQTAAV
- Sequence (P24387 whole entry): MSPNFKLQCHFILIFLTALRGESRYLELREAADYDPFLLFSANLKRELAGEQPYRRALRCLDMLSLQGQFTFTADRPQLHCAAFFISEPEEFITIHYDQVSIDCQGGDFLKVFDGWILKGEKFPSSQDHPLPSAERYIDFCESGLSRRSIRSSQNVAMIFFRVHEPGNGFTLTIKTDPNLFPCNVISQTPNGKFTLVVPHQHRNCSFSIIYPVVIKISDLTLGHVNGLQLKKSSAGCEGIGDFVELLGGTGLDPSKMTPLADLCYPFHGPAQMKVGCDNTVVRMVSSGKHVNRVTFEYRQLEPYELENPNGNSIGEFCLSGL
- Test Description: Dose Response confirmation of uHTS hits for small molecule antagonists of the CRF-binding protein and CRF-R2 receptor complex.
- Assay type: functional
- Experimental Conditions: read-out: IC50_Mean
The source made the active and inactive calls.
Use one of these outcomes when replying: True for active, False for inactive

- Structure Smiles: "O=C(NCc1csc(-c2cccs2)n1)c1ccccc1"
  Class Assignment: "False"
- Structure Smiles: "N#Cc1ccc(CSC2=NCCN2)cc1"
  Class Assignment: "False"
- Structure Smiles: "CC1CCN(S(=O)(=O)c2ccc3c(c2)NC(=O)CS3)CC1"
  Class Assignment: "False"
- Structure Smiles: "Clc1ccc(-n2cc(COCc3ccccc3)nn2)cc1"
  Class Assignment: "False"

Short answer needed: outcome of this test for C#CCSc1nc(C)cc(C(=O)OCC)c1C#N ?
False

Short answer needed: outcome of this test for N#C/C(=C1\CCCN1)c1nc(O)c2ccccc2n1 ?
False

Short answer needed: outcome of this test for COc1cc2ccccc2cc1C(=O)N/N=C/c1ccc2c(c1)OCO2 ?
False

Short answer needed: outcome of this test for O=C(Cc1ccccc1)NCC(=O)OC(c1ccccc1)c1ccccc1 ?
True

Short answer needed: outcome of this test for CCC(=O)Nc1ccc(NC(=O)c2oc3ccccc3c2C)cc1 ?
False

----------
- Measurement Target: UniProt P9WHJ3
- Test Description: Fluorescence Cell-Free Homogeneous Dose Retest to Identify Inhibitors of RecA-Intein Splicing Activity. [Related pubchem assays (depositor defined):AID2097, AID2223, AID489010, AID492950]
- Assay type: functional
Activity calls are given as the source filed them.
Use one of these outcomes when replying: active, inactive

Solved entries (count: 5):
- Compound: "CC1=NNC(=O)C1Cc1ccccc1 (configuration not stated)"
  Class Assignment: "active"
- Compound: "CC(=O)N(Cc1ccc(F)cc1)C1=C(NCCc2ccccc2)C(=O)c2ccccc2C1=O"
  Class Assignment: "active"
- Compound: "COc1ccc(-n2c3nc4ccccc4nc3c3c(=N)oc(C)nc32)cc1"
  Class Assignment: "inactive"
- Compound: "O=C(N/N=C1\\C/C(=N\\NC(=O)c2ccncc2)c2ccccc21)c1ccncc1"
  Class Assignment: "active"
- Compound: "CCc1nnc(NC(=O)c2nc(S(=O)(=O)Cc3ccc(C)cc3)ncc2Cl)s1"
  Class Assignment: "active"

Short answer needed: outcome of this test for O=C(NC(=C(Cl)Cl)S(=O)(=O)c1ccc(Cl)cc1)c1ccccc1 ?
active

Short answer needed: outcome of this test for CCOc1cc(C(c2c(C)n[nH]c2O)c2c(C)n[nH]c2O)ccc1OS(=O)(=O)c1ccc(C)cc1 ?
active

Short answer needed: outcome of this test for CCNC(=O)c1ccccc1-c1nc(-c2ccccc2)no1 ?
inactive

Short answer needed: outcome of this test for Cc1cc(C)c(C#N)c(SCc2n[nH]c3c2C(c2ccc(F)cc2)C(C#N)=C(N)O3)n1 (configuration not stated) ?
active

Short answer needed: outcome of this test for CN1C(=O)C(Cc2ccc3c(c2)OCO3)C(=O)N(C)C1=O ?
active

Short answer needed: outcome of this test for COc1cc(N)c(Cc2nccc3cc(OC)c(OC)cc23)cc1OC ?
active

Short answer needed: outcome of this test for COc1ccccc1-c1cc(C(F)(F)F)nc(S(=O)(=O)CCCC(=O)NCc2ccc(F)cc2)n1 ?
active

Short answer needed: outcome of this test for Clc1ccc(CSC(Cn2ccnc2)c2ccc(Cl)cc2Cl)cc1 (configuration not stated) [SULCONAZOLE NITRATE] ?
active

Short answer needed: outcome of this test for O=C(CCl)Nc1c(C(=O)Nc2ccc3c(c2)OCCO3)oc2ccccc12 ?
active

Short answer needed: outcome of this test for Cc1onc(-c2c(Cl)cccc2Cl)c1C(=O)N1C(C)CCCC1C (configuration not stated) ?
inactive

Short answer needed: outcome of this test for COC(=O)c1ccccc1OC(=O)c1ccc(Br)o1 ?
active

----------
- Test Description: HPDE-C7 pancreatic duct cell viability loss – fluorescence, HTS (AID 430)
- Assay type: functional, cell-based
- Experimental Conditions: Homo sapiens
Structures can show the parent of a compound that is named as a salt. The source made the active and inactive calls.
Reported Metric: EC50

- Compound: "CC(CN1c2ccccc2Sc2ccccc21)N(C)C (centres undefined) [PROMETHAZINE HYDROCHLORIDE]"
  EC50: "> 20 µM (not active)"
- Compound: "Cc1ccc2nc(-c3ccccc3)cc(O)c2c1"
  EC50: "0.91 µM (active)"
- Compound: "Cc1c2ccncc2c(C)c2c1[nH]c1ccccc12"
  EC50: "6.17 µM (active)"

As a next step, examine the compound that follows.
EC50 measured on Clc1ccc(CSC(Cn2ccnc2)c2ccc(Cl)cc2Cl)cc1 (centres undefined) [SULCONAZOLE NITRATE] = 7.1 µM (active)

----------
Entries and their measured IC50 follow.
- Measurement Target: Genome polyprotein (dengue virus type 2)
- Test Description: flavivirus cap methylation enzyme inhibition – biochemical, confirmation dose response, primary screen (AID 588689)
- Type: functional
The source made the active and inactive calls.

IC50 measured on O=C1ON=C(c2ccccc2)/C1=C/c1ccc(OS(=O)(=O)c2ccccc2)cc1 = 32.3 µM (active)

IC50 measured on CCOc1c(Cl)cc(CNc2ccc(N3CCCC3)cc2)cc1OC = 93.2 µM (active)

IC50 measured on Cc1ccc(S(=O)(=O)N2[C@@H](c3ccc(Br)cc3)C(C(=O)O)=CC[C@H]2c2ccc(C(C)C)cc2)cc1 = 32.9 µM (active)

IC50 measured on Cc1cccc(N2NC(=O)/C(=C/c3ccc(-c4ccc(Cl)c(C(=O)O)c4)o3)C2=O)c1 = 22.5 µM (active)

IC50 measured on CCc1nnc(NC(=O)c2nc(S(=O)(=O)Cc3ccc(C)cc3)ncc2Cl)s1 = > 100 µM (active)

----------
- Measurement Target: Peroxisome proliferator-activated receptor gamma/Nuclear receptor coactivator 1 (Homo sapiens)
- Sequence (P37231 whole entry): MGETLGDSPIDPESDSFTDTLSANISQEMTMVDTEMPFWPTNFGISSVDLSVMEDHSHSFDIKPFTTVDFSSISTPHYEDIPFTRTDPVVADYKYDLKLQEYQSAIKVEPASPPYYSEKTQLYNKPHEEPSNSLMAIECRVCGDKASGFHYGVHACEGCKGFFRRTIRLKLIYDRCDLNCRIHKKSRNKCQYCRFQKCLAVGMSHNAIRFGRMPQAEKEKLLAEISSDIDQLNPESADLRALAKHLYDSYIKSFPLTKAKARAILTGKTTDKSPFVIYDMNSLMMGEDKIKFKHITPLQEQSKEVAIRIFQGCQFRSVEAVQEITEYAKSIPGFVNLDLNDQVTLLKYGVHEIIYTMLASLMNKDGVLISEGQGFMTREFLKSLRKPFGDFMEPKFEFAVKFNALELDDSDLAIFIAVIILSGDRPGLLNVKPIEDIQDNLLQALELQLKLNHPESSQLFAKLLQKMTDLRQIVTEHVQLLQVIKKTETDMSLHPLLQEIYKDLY
- Sequence (Q15788 whole entry, further chain): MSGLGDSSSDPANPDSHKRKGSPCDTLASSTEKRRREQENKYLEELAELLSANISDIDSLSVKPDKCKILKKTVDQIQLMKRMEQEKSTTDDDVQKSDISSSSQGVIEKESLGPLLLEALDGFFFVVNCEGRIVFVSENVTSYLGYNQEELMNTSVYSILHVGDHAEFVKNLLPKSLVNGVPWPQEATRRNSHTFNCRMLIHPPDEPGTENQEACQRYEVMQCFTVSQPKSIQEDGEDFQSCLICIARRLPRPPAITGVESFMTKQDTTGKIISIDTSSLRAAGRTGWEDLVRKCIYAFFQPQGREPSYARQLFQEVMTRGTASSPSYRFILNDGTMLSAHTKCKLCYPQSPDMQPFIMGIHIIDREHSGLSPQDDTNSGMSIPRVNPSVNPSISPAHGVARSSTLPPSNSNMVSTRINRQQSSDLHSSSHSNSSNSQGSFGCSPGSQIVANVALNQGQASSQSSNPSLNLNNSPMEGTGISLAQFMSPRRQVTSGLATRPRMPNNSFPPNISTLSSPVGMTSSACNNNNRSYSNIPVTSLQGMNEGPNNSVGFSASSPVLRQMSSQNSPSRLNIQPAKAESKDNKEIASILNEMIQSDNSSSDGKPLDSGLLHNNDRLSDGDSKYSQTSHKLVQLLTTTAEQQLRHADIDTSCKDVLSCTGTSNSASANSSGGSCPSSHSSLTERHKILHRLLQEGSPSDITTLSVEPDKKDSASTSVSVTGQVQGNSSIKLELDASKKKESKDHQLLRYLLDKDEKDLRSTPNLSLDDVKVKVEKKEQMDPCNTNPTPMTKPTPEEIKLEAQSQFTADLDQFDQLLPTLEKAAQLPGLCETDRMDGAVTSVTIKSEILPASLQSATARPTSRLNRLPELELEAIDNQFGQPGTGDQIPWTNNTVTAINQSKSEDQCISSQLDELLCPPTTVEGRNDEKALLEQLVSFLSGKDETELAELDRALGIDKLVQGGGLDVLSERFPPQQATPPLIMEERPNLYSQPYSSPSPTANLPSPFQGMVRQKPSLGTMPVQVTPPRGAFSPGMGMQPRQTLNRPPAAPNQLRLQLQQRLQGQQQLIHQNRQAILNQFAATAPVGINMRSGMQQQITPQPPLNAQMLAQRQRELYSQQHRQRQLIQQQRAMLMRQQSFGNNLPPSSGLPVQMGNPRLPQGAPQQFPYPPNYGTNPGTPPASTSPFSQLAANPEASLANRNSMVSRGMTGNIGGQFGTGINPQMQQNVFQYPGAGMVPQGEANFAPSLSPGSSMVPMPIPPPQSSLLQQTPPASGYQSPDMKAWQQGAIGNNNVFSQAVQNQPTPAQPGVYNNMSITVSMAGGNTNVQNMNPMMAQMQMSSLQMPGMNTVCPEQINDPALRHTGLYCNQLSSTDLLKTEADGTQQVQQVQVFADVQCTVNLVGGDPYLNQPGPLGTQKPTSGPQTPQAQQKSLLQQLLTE
- Test Description: TR-FRET dose response biochemical High Throughput Screening assay for agonists of the steroid receptor coactivator 1 (SRC-1) recruitment by the peroxisome proliferator-activated receptor gamma (PPAR gamma): non-selective agonists. [Related pubchem assays (depositor defined):AID1300, AID1808, AID504735, AID631]
- Format: protein assay
Calls of active or inactive are those of the source.
Reported Metric: EC50

Consider the following illustrative entries.
- Structure Smiles: "O=C(CSc1ncnc2c1oc1ccccc12)OCc1ccccc1"
  EC50: "> 2.94 µM (inactive)"
- Structure Smiles: "O=C(c1cc2c(s1)-c1ccccc1OC2)N1CCN(c2ccccn2)CC1"
  EC50: "33.7 µM (inactive)"
- Structure Smiles: "O=c1oc(-c2ccccc2F)nc2c1cnn2-c1ccccc1"
  EC50: "> 79.4 µM (inactive)"

As a next step, examine the compound that follows.
EC50 measured on Clc1ccc(Cl)c(-c2ccc(/C=N/c3nc[nH]n3)o2)c1 = 13.7 µM (inactive)

----------
Entries and their measured EC50 follow.
- Measurement Target: UniProt:Q9XUB2
- Sequence (Q9XUB2 whole entry): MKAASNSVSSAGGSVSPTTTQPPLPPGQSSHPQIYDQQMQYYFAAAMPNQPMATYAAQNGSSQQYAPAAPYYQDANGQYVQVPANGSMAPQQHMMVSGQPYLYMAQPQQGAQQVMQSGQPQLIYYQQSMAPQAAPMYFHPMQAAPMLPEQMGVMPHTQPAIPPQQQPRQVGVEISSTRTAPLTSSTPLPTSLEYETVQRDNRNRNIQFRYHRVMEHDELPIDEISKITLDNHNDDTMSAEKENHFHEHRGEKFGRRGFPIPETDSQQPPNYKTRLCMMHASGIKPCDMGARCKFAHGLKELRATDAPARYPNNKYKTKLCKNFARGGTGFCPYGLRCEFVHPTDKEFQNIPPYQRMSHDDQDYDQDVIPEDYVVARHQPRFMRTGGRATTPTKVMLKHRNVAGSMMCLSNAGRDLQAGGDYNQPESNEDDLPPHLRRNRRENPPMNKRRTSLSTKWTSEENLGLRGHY
- Test Description: potency of MEX-5 RNA-binding blockers – biochemical, C. elegans, fluorescence polarization, dose response (AID 1960)
Calls of active or inactive are those of the source.

Consider the following illustrative entries.
- Molecule: "COC(=O)CNC(=O)C1Nc2ccccc2C2C=CCC12 (centres undefined)"
  Endpoint Result: "173 µM (active)"
- Molecule: "NS(=O)(=O)c1ccc(-c2ccc(/C=C3\\NC(=S)NC3=O)o2)cc1"
  Endpoint Result: "10.8 µM (inconclusive)"
- Molecule: "Cn1c(=O)[nH]c(=O)c2c1nc(N/N=C/C(Br)=C/c1ccccc1)n2CCO"
  Endpoint Result: "55.5 µM (active)"
- Molecule: "Cc1ccc(C2C(C(=O)c3ccco3)=C(O)C(=O)N2c2nnc(C)s2)cc1 (centres undefined)"
  Endpoint Result: "> 300 µM (inconclusive)"
- Molecule: "CC1C2C(C)N(C)C(=O)N(C)C2N(C)C(=O)N1C (centres undefined)"
  Endpoint Result: "18.5 µM (active)"

EC50 measured on Cc1ccc(/C=C2/Sc3ccc(C(=O)N4CCN(c5ccccn5)CC4)cc3NC2=O)cc1 = 5.05 µM (active)

EC50 measured on C=CCn1cc/c(=N\C=C(C#N)C#N)c2ccccc21 = > 300 µM (not active)

EC50 measured on COc1cc2c3nnc(-c4ccccc4)c-3cn(Cc3ccccc3F)c2cc1OC = > 300 µM (inconclusive)

EC50 measured on Cc1cc(C)c(/C=C2\C(=O)Nc3ccccc32)[nH]1 = > 300 µM (not active)

----------
- Test system: SN12K1
- Test Description: cells
- Assay type: functional
- Experimental Conditions: Homo sapiens
Active and inactive are the calls of the source.
Entries and their measured GI50 follow.

Consider the following illustrative entries.
- Compound: "O=C1c2ccccc2C(O)(C(=O)O)C1(O)CC=C(Cl)Cl (stereo not given)"
  Endpoint Result: "> 125 µM (inactive)"
- Compound: "CCCCCCCCCCCCOCCCOP(=O)([O-])OCC[N+](C)(C)C"
  Endpoint Result: "> 100 µM (inactive)"
- Compound: "C[C@]12CC[C@H](OC3OC(CO)C(O)C(O)C3O)C[C@H]1CC[C@@H]1[C@@H]2CC[C@]2(C)[C@@H](C3=CCOC3=O)CC[C@]12O (stereo not given in full)"
  Endpoint Result: "11 µM (inactive)"
- Compound: "Nc1ncnc2c1nc(Cl)n2[C@@H]1O[C@@H]2COP(=O)(O)O[C@H]2[C@H]1O"
  Endpoint Result: "7.26 µM (inactive)"

As a next step, examine the compound that follows.
GI50 measured on CS(=O)(=O)OCCCNCCCOS(C)(=O)=O = 753 µM (inactive)
